- Assayed system: Retinoic acid receptor alpha (Homo sapiens)
- Sequence (whole entry): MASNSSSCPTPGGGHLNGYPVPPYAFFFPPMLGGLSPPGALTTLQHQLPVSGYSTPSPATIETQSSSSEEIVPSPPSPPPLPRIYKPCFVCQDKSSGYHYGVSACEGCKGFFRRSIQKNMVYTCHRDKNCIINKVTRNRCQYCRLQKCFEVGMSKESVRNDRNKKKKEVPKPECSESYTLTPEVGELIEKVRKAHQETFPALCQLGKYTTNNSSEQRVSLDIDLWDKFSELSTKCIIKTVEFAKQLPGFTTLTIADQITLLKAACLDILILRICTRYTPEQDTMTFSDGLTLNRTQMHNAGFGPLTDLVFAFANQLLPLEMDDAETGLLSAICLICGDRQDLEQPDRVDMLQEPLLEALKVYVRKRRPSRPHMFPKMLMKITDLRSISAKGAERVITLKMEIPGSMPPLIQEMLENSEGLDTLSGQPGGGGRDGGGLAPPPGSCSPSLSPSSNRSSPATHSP
- Method notes: Transactivation of Gal4-LBD fused human RARalpha (156 to 454) transfected in african green monkey CV1 cells assessed as luciferase activity at 2 uM after 6 hrs by Dual-light chemiluminescent assay
- Format: cell-based
- Setup conditions: CV-1
The source made the active and inactive calls. The rule behind the calls is not given here.
Measured endpoint: Activity

>  <Chem smiles>
COCCOCOc1cc(C)c(-c2ccc3cc(C(=O)O)ccc3c2Cl)cc1C12CC3CC(CC(C3)C1)C2

>  <Measured endpoint>
Activity

>  <Value reported>
inactive

$$$$
>  <Chem smiles>
COCCOCOc1cc(C)c(-c2ccc(CC(=O)O)cc2Cl)cc1C12CC3CC(CC(C3)C1)C2

>  <Measured endpoint>
Activity

>  <Value reported>
inactive

$$$$
>  <Chem smiles>
COCCOCOc1ccc(C(=O)/C=C/c2ccc(C(=O)O)cc2)cc1C12CC3CC(CC(C3)C1)C2

>  <Measured endpoint>
Activity

>  <Value reported>
inactive

$$$$
>  <Chem smiles>
Cc1cc(O)c(C23CC4CC(CC(C4)C2)C3)cc1-c1ccc(/C=C/C(=O)O)cc1Cl

>  <Measured endpoint>
Activity

>  <Value reported>
inactive

$$$$
>  <Chem smiles>
Cc1cc(O)c(C23CC4CC(CC(C4)C2)C3)cc1-c1ccc(CC(=O)O)cc1Cl

>  <Measured endpoint>
Activity

>  <Value reported>
inactive

$$$$
>  <Chem smiles>
COCCOCOc1cc(C)c(-c2ccc(/C=C/C(=O)O)cc2Cl)cc1C12CC3CC(CC(C3)C1)C2

>  <Measured endpoint>
Activity

>  <Value reported>
inactive

$$$$
>  <Chem smiles>
Cc1cc(O)c(C23CC4CC(CC(C4)C2)C3)cc1-c1ccc2cc(C(=O)O)ccc2c1Cl

>  <Measured endpoint>
Activity

>  <Value reported>
inactive

$$$$
>  <Chem smiles>
C/C(=C/c1ccc(C(=O)O)cc1)c1ccc(O)c(C23CC4CC(CC(C4)C2)C3)c1

>  <Measured endpoint>
Activity

>  <Value reported>
inactive

$$$$
